Recorded values, source patent US20220324934A1.

- test target: T1, IL-2Rβ (UniProt P14784 27-240, limits assumed, biotinylated (site not stated))
- T1 construct: also called CD122; IL-2Rbeta
- T1 sequence (looked up): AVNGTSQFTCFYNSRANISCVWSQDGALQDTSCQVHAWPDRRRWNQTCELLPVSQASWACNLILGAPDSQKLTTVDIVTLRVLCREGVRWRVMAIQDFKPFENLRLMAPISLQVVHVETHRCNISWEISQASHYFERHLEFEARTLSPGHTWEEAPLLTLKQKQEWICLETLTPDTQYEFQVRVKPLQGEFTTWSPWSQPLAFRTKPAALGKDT
- measurement protocol: SPR Biacore T100, kinetic fit; biotinylated IL-2Rβ on chip
Catalogue of binders with associated Kd
A number alone suffices; assume nM.

in silico designed IL-2 variant SEQ ID NO: 8, MSA fusion protein (ligand, not shown: large carriers; small tags and cut ends) APTSSSTKKTQLQLEHLLLDLQMILNMLNNYDNPKLTRLLTFKFYMPKKATSLKHLQCLEEELKPLEEALNAADSTDERIRDVVSNINVFVLELKGSETTFMCEYADETATIIEFLNRWITFCQSIISTLT :: 5.9

Then this binder:
For in silico designed IL-2 variant SEQ ID NO: 6, MSA fusion protein (ligand, not shown: large carriers; small tags and cut ends) APTSSSTKKTQLQLEHLLLDLQMILNMLNNYENPKLTRMLTFKFYMPKKATSLKHLQCLEEELKPLEEALNQAGDDPKTIRDLISNINVIVLELKGSETTFMCEYADETATIIEFLNRWITFCQSIISTLT , write its Kd. 315
